test system: KM20L2; test: Human cancer cell line growth inhibition, Colon KM20L2; type: cell-based; settings: KM20L2
PARAMETER: Colon KM20L2 GI50 (µg/mL)
Output spec: scalar in µg/mL, unitless text.

MOLECULE	MEASUREMENT UNIT	TEST RESULT
COc1cc(/C=C\c2ccc(OC)c(OP(=O)([O-])[O-])c2OP(=O)([O-])[O-])cc(OC)c1OC.[K+].[K+].[K+].[K+] [Compound 11b]	µg/mL	0.30
COc1cc(/C=C\c2ccc(OC)c(OP(=O)([O-])[O-])c2OP(=O)([O-])[O-])cc(OC)c1OC.[Mn+2].[Mn+2] [Compound 11f]	µg/mL	6.1
COc1cc(/C=C\c2ccc(OC)c(OP(=O)([O-])[O-])c2OP(=O)([O-])[O-])cc(OC)c1OC.[Zn+2].[Zn+2] [Compound 11g]	µg/mL	0.32

Input: For COc1cc(/C=C\c2ccc(OC)c(OP(=O)([O-])[O-])c2OP(=O)([O-])[O-])cc(OC)c1OC.[Cs+].[Cs+].[Cs+].[Cs+] [Compound 11c] , what is its reported Colon KM20L2 GI50?
Output: 0.28

Input: Can you share its Colon KM20L2 GI50? I mean this molecule: COc1cc(/C=C\c2ccc(OC)c(OP(=O)([O-])[O-])c2OP(=O)([O-])[O-])cc(OC)c1OC.[Li+].[Li+].[Li+].[Li+] [Compound 11a]
Output: 0.37

Taken from patent US7078552B2.
